# procedure-details: pKa value of the compound
# Assay type: physicochemical
quantity-measured: pKa

>>> print(df.to_string())
                              line_notation  quantity_measured  assay_result
0  Fc1ccc(Nc2nc(NCc3ncccn3)nc(Nc3ccccc3)n2)cc1                pKa           3.9

Values from patent US8399663B2
